System: KB
method-summary: Cytotoxicity against human KB cells after 48 hrs by MTT assay
Type: functional, cell-based
readout-name: IC50
Could you give the number and then its unit, please?

{"columns": ["compound", "reported"],
 "data": [
  ["COC(=O)c1cc(Br)ccc1OC(=O)COc1cc(O)c2c(=O)cc(-c3ccccc3)oc2c1", "0.79 µM"]
]}

Let's switch to this compound now.
Supply reported IC50 belonging to this compound: O=c1[nH]cc(F)c(=O)[nH]1 [FLUOROURACIL]
2.16 µM

----------
method-summary: Immunosuppressive activity in BALB/c mouse T cells assessed as inhibition of anti-CD3/anti-CD28-stimulated cell proliferation after 72 hrs by MTT assay
Type: functional, cell-based
readout-name: pIC50
pIC50 field: float, defined as -log10 of concentration (mol/L).

{"columns": ["chemical-string", "pIC50"],
 "data": [
  ["O=C(COc1cc(O)c2c(=O)cc(-c3ccccc3)oc2c1)Oc1cc(Cl)cc(Cl)c1C(=O)O", 4.36],
  ["COC(=O)c1ccc(Br)cc1OC(=O)COc1cc(O)c2c(=O)cc(-c3ccccc3)oc2c1", 4.75],
  ["COC(=O)c1cccc(OC)c1OC(=O)COc1cc(O)c2c(=O)cc(-c3ccccc3)oc2c1", 4.43],
  ["COC(=O)c1ccc(C)cc1OC(=O)COc1cc(O)c2c(=O)cc(-c3ccccc3)oc2c1", 4.51],
  ["O=c1cc(-c2ccccc2)oc2cc(O)cc(O)c12", 4.35]
]}

Output pIC50 of Cc1cccc(OC(=O)COc2cc(O)c3c(=O)cc(-c4ccccc4)oc3c2)c1C(=O)O
4.43

Annotate the compound COC(=O)c1cc(Br)ccc1OC(=O)COc1cc(O)c2c(=O)cc(-c3ccccc3)oc2c1 with its measured pIC50.
6.11

Using the record for O=C(COc1cc(O)c2c(=O)cc(-c3ccccc3)oc2c1)Oc1c(Br)cccc1C(=O)O , state its measured pIC50.
4.39

----------
method-summary: Toxicity in po dosed BALB/c mouse
Assay type: organism-based
measurement-setup: in vivo
readout-name: LD50

Provide one value: measured LD50 of COC(=O)c1cc(Br)ccc1OC(=O)COc1cc(O)c2c(=O)cc(-c3ccccc3)oc2c1
738 mg/kg

----------
Overview of recorded CC50 at 48 h for various molecules
method-summary: Cytotoxicity against BALB/c mouse T cells after 48 hrs by MTT assay
Assay type: cell-based, T-cell
Answer format: numeric, µM implied, no suffix.

{"columns": ["chemical-string", "CC50 at 48 h [µM]"],
 "data": [
  ["O=C(COc1cc(O)c2c(=O)cc(-c3ccccc3)oc2c1)Oc1cc(Br)cc(Br)c1C(=O)O", 398],
  ["O=C(COc1cc(O)c2c(=O)cc(-c3ccccc3)oc2c1)Oc1cccc(Br)c1C(=O)O", 388]
]}

Okay, now this molecule:
Supply measured CC50 at 48 h of COC(=O)c1cc(F)ccc1OC(=O)COc1cc(O)c2c(=O)cc(-c3ccccc3)oc2c1 in your reply.
389

----------
method-summary: Immunosuppressive activity in BALB/c mouse T cells assessed as inhibition of anti-CD3/anti-CD28-stimulated cell proliferation after 72 hrs by MTT assay
Assay type: functional, cell-based
Recorded pIC50 by entry
Here pIC50 is given on a logarithmic scale as minus log10 of the concentration in mol/L.

{"columns": ["chemical-string", "pIC50"],
 "data": [
  ["COC(=O)c1cc(Cl)ccc1OC(=O)COc1cc(O)c2c(=O)cc(-c3ccccc3)oc2c1", 5.43],
  ["COC(=O)c1cc(C)ccc1OC(=O)COc1cc(O)c2c(=O)cc(-c3ccccc3)oc2c1", 4.59]
]}

Let us move to another entry and its pIC50.
Specify reported pIC50 for the compound shown: O=C(COc1cc(O)c2c(=O)cc(-c3ccccc3)oc2c1)Oc1cccc(O)c1C(=O)O
4.42

----------
method-summary: Immunosuppressive activity in BALB/c mouse T cells assessed as inhibition of anti-CD3/anti-CD28-stimulated cell proliferation after 72 hrs by MTT assay
Type: functional, cell-based
Listed next: entries and their corresponding IC50.
Kindly answer with a numeric value in µM, unit omitted.

{"columns": ["chemical-string", "IC50 (µM)"],
 "data": [
  ["O=C(COc1cc(O)c2c(=O)cc(-c3ccccc3)oc2c1)Oc1cc(Br)cc(Br)c1C(=O)O", 45.7],
  ["COC(=O)c1ccccc1OC(=O)COc1cc(O)c2c(=O)cc(-c3ccccc3)oc2c1", 28.5],
  ["O=C(COc1cc(O)c2c(=O)cc(-c3ccccc3)oc2c1)Oc1cccc(Br)c1C(=O)O", 41.7]
]}

Fill in IC50 for record COC(=O)c1ccc(Cl)cc1OC(=O)COc1cc(O)c2c(=O)cc(-c3ccccc3)oc2c1
12.4

Supply measured IC50 of Cc1cccc(C(=O)O)c1OC(=O)COc1cc(O)c2c(=O)cc(-c3ccccc3)oc2c1 in your reply.
39.1

Where do these numbers come from? They come from ChEMBL document CHEMBL1649396.
